tested on: mice; experiment: Neuropharmacological assay (SmartCube), behavioral signature of compound-treated mice; type: in vivo; conditions: i.p. 15 min before behavioral test, most efficacious dose(s) of 3 doses
MEASURED_PROPERTY: CE: cognitive enhancer (probability that behavioral signature matches class)

* CCN1CCC[C@H]1[C@@H]1OCCc2cc(F)ccc21 | + (LOQ ≤ + <5%)
* Fc1ccc2c(c1)[C@H](F)CO[C@H]2[C@@H]1CCCN1 | ++ (5% ≤ ++ <25%)
* c1cc2c(c3c1CCO[C@@H]3[C@@H]1CCN1)OCO2 | + (LOQ ≤ + <5%)
* Fc1cccc2c1[C@@H]([C@H]1CCCN1)OCC2 | ++ (5% ≤ ++ <25%)
* CN1CCC[C@H]1[C@@H]1OCCc2cc(F)ccc21 | ++ (5% ≤ ++ <25%)

---

biological target: 5-HT1A (Homo sapiens, UniProt P08908); construct: expressed in transfected cells; host or cells: HEK-293 cells; test: In vitro radioligand binding assay, 5-HT1A, [3H]8-OH-DPAT; set-up: concentration or dose not given beside the values; conditions: human recombinant (HEK-293 cells)
Sequence (P08908 whole entry): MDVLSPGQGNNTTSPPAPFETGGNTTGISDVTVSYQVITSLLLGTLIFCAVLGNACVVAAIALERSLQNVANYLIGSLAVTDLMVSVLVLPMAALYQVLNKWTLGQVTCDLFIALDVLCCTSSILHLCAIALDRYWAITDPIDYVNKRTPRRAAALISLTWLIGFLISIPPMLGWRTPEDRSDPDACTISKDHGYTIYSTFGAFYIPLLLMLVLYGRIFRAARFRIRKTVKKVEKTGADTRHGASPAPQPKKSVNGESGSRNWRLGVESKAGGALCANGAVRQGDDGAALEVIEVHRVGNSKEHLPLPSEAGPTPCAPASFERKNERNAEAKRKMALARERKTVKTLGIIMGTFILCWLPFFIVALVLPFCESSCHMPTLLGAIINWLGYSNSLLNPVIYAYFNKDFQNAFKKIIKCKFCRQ
The following compounds are listed with their measured 5HT1a percent inhibition of specific binding values.
MEASURED_PROPERTY: 5HT1a percent inhibition of specific binding (%)

• Fc1ccc2c(c1)CCO[C@H]2[C@@H]1CCN1 = 64
• Fc1cccc2c1[C@H]([C@@H]1CCCN1)OCC2 = 79
• Fc1cccc2c1[C@H]([C@@H]1CCN1)OCC2 = 87
• Clc1ccc2c(c1)[C@H]([C@@H]1CCCN1)OCC2 = 71
• Fc1ccc2c(c1)[C@H]([C@@H]1CCCN1)OCC2 = 52
• Fc1ccc2c(c1)CCO[C@H]2[C@@H]1CCCN1 = 77

---

tested on: mice; test: Neuropharmacological assay (SmartCube), behavioral signature of compound-treated mice; type: in vivo; conditions: i.p. 15 min before behavioral test, most efficacious dose(s) of 3 doses
MEASURED_PROPERTY: CE: cognitive enhancer (probability that behavioral signature matches class)

- Fc1cccc2c1CCO[C@@H]2[C@@H]1CCCN1: ++ (5% ≤ ++ <25%)
- Fc1cccc2c1[C@H]([C@@H]1CCCN1)OCCC2: ++ (5% ≤ ++ <25%)
- c1ccc2c(c1)CCO[C@@H]2[C@H]1CCN1 [Compound I-81, (R)-2-((S)-isochroman-1-yl)azetidine]: ++ (5% ≤ ++ <25%)

---

test system: mice; experiment: Neuropharmacological assay (SmartCube), behavioral signature of compound-treated mice; assay type: in vivo; conditions: i.p. 15 min before behavioral test, most efficacious dose(s) of 3 doses
MEASURED_PROPERTY: AX: anxiolytic (probability that behavioral signature matches class)

• c1ccc2c(c1)CCO[C@H]2C1CNC1 [Compound I-115, (S)-3-(isochroman-1-yl)azetidine] = ++ (5% ≤ ++ <25%)
• c1ccc2c(c1)CCO[C@H]2[C@@H]1COCCN1 [Compound I-76, (S)-3-((R)-isochroman-1-yl)morpholine] = ++ (5% ≤ ++ <25%)
• Fc1cccc2c1CCO[C@H]2[C@H]1CCN1 = ++ (5% ≤ ++ <25%)
• N#Cc1ccc2c(c1)CCO[C@H]2[C@H]1CCCN1 = +++ (25% ≤ +++ <50%)
• Cc1cccc2c1[C@H]([C@@H]1CCCN1)OCC2 = ++ (5% ≤ ++ <25%)
• Clc1ccc2c(c1)[C@H]([C@@H]1CCCN1)OCC2 = +++ (25% ≤ +++ <50%)
• Fc1cccc2c1[C@@H]([C@H]1CCCN1)OCC2 = ++ (5% ≤ ++ <25%)
• N#Cc1ccc2c(c1)[C@@H]([C@H]1CCCN1)OCC2 = ++ (5% ≤ ++ <25%)
• Fc1ccc2c(c1)[C@H]([C@@H]1CCCN1)OCCC2 = +++ (25% ≤ +++ <50%)
• Fc1ccc2c(c1)[C@H]([C@@H]1CCCN1)OCC2 = ++ (5% ≤ ++ <25%)
• Clc1ccc2c(c1)CCO[C@@H]2[C@H]1CCCN1 = ++ (5% ≤ ++ <25%)
• c1ccc2c(c1)CCO[C@H]2[C@@H]1CCCCN1 [Compound I-72, (S)-2-((R)-isochroman-1-yl)piperidine] = ++ (5% ≤ ++ <25%)
• c1ccc2c(c1)CCCO[C@H]2[C@@H]1CCCN1 = ++ (5% ≤ ++ <25%)
• Fc1ccc2c(c1)CCO[C@@H]2[C@H]1CCCN1 = ++ (5% ≤ ++ <25%)
• Fc1cccc2c1CCO[C@@H]2[C@@H]1CCN1 = ++ (5% ≤ ++ <25%)
• Fc1cccc2c1CCO[C@H]2[C@H]1CCCN1 = +++ (25% ≤ +++ <50%)
• Fc1ccc2c(c1)CO[C@@H]2[C@@H]1CCN1 = ++ (5% ≤ ++ <25%)
• c1cc2c(c3c1CCO[C@@H]3[C@@H]1CCCN1)OCO2 = ++ (5% ≤ ++ <25%)
• Clc1ccc2c(c1)CCO[C@@H]2[C@@H]1CCCN1 = ++ (5% ≤ ++ <25%)
• CC1(C)Cc2ccccc2[C@H]([C@@H]2CCCN2)O1 = ++ (5% ≤ ++ <25%)
• Fc1cccc2c1CCO[C@@H]2[C@@H]1CCCN1 = ++ (5% ≤ ++ <25%)
• Fc1cccc2c1CCO[C@H]2[C@@H]1CCCN1 = ++ (5% ≤ ++ <25%)
• CC1(C)Cc2ccccc2[C@@H]([C@@H]2CCCN2)O1 = ++ (5% ≤ ++ <25%)
• Fc1ccc2c(c1)[C@@H]([C@H]1CCCN1)OCCC2 = ++ (5% ≤ ++ <25%)
• Fc1cccc2c1CCO[C@H]2[C@@H]1CCN1 = ++ (5% ≤ ++ <25%)
• Fc1ccc2c(c1)[C@@H]([C@H]1CCCN1)OCC2 = ++ (5% ≤ ++ <25%)
• Cc1ccc2c(c1)[C@H]([C@H]1CCCN1)OCC2 = +++ (25% ≤ +++ <50%)

---

test system: mice; assay: Neuropharmacological assay (SmartCube), behavioral signature of compound-treated mice; format: in vivo; conditions: i.p. 15 min before behavioral test, most efficacious dose(s) of 3 doses
MEASURED_PROPERTY: AX: anxiolytic (probability that behavioral signature matches class)

• Fc1cccc2c1[C@H]([C@@H]1CCCN1)OCC2 = ++ (5% ≤ ++ <25%)
• Cc1ccc2c(c1)[C@@H]([C@H]1CCCN1)OCC2 = +++ (25% ≤ +++ <50%)
• c1ccc2c(c1)CCO[C@@H]2[C@@H]1CCCCN1 [Compound I-71, (S)-2-((S)-isochroman-1-yl)piperidine] = +++ (25% ≤ +++ <50%)
• c1ccc2c(c1)CCO[C@@H]2[C@@H]1COCCN1 [Compound I-75, (S)-3-((S)-isochroman-1-yl)morpholine] = ++ (5% ≤ ++ <25%)
• N#Cc1ccc2c(c1)[C@@H]([C@@H]1CCCN1)OCC2 = ++ (5% ≤ ++ <25%)
• Fc1ccc2c(c1)CCO[C@H]2[C@@H]1COCCN1 = +++ (25% ≤ +++ <50%)
• Fc1ccc2c(c1)CCO[C@H]2[C@@H]1CCN1 = +++ (25% ≤ +++ <50%)
• Fc1ccc2c(c1)CCO[C@@H]2[C@H]1CCN1 = ++ (5% ≤ ++ <25%)
• Fc1ccc2c(c1)[C@@H]([C@@H]1CCN1)OCC2 = ++ (5% ≤ ++ <25%)
• c1ccc2c(c1)CCO[C@H]2[C@H]1CCCN1 [Compound I-19, (R)-2-((R)-isochroman-1-yl)pyrrolidine] = ++ (5% ≤ ++ <25%)
• c1c2c(cc3c1OCO3)[C@H]([C@@H]1CCCN1)OCC2 = +++ (25% ≤ +++ <50%)
• Cc1cccc2c1[C@H]([C@H]1CCCN1)OCC2 = ++ (5% ≤ ++ <25%)
• c1cc2c(c3c1CCO[C@@H]3[C@@H]1CCN1)OCO2 = ++ (5% ≤ ++ <25%)

---

tested on: mice; experiment: Neuropharmacological assay (SmartCube), behavioral signature of compound-treated mice; assay type: in vivo; settings: i.p. 15 min before behavioral test, most efficacious dose(s) of 3 doses
MEASURED_PROPERTY: CE: cognitive enhancer (probability that behavioral signature matches class)

* COc1cccc2c1[C@H]([C@@H]1CCCN1)OCC2 | + (LOQ ≤ + <5%)
* C[C@@]1([C@@H]2CCCN2)OCc2cc(F)ccc21 | + (LOQ ≤ + <5%)
* Fc1cccc2c1CCO[C@H]2[C@H]1CCCN1 | ++ (5% ≤ ++ <25%)
* c1ccc(-c2ccc3c(c2)CCO[C@H]3[C@@H]2CCCN2)nc1 | + (LOQ ≤ + <5%)
* Cc1cccc2c1[C@H]([C@@H]1CCCN1)OCCC2 | ++ (5% ≤ ++ <25%)
* c1ccc2c(c1)CCO[C@H]2[C@H]1CCN1 [Compound I-82, (R)-2-((R)-isochroman-1-yl)azetidine] | ++ (5% ≤ ++ <25%)
* Fc1ccc2c(c1)CO[C@H]2[C@@H]1CCCN1 | ++ (5% ≤ ++ <25%)
* Fc1cccc2c1CCO[C@@H]2[C@H]1CCN1 | ++ (5% ≤ ++ <25%)
* Clc1ccc2c(c1)CCO[C@H]2[C@H]1CCCN1 | ++ (5% ≤ ++ <25%)
* Fc1cccc2c1CCO[C@H]2[C@H]1CCN1 | ++ (5% ≤ ++ <25%)
* Clc1ccc2c(c1)[C@H]([C@H]1CCCN1)OCC2 | ++ (5% ≤ ++ <25%)
* Fc1ccc2c(c1)[C@@H]([C@@H]1CCCN1)OCC2 | + (LOQ ≤ + <5%)
* c1c2c(cc3c1OCO3)[C@@H]([C@@H]1CCCN1)OCC2 | + (LOQ ≤ + <5%)
* N#Cc1ccc2c(c1)CCO[C@@H]2[C@@H]1CCCN1 | ++ (5% ≤ ++ <25%)
* C[C@@]1([C@H]2CCCN2)OCc2cc(F)ccc21 | + (LOQ ≤ + <5%)
* Fc1ccc2c(c1)[C@@H]([C@H]1CCN1)OCC2 | ++ (5% ≤ ++ <25%)
* c1c2c(cc3c1OCO3)[C@H]([C@@H]1CCCN1)OCC2 | ++ (5% ≤ ++ <25%)
* Fc1cccc2c1[C@H]([C@H]1CCCN1)OCC2 | ++ (5% ≤ ++ <25%)
* CC1(C)Cc2ccccc2[C@H]([C@H]2CCCN2)O1 | + (LOQ ≤ + <5%)
* Clc1ccc2c(c1)CCO[C@@H]2[C@@H]1CCCN1 | ++ (5% ≤ ++ <25%)
* Fc1ccc2c(c1)CCCO[C@@H]2[C@@H]1CCCN1 | ++ (5% ≤ ++ <25%)
* Clc1ccc2c(c1)CCO[C@@H]2[C@H]1CCCN1 | ++ (5% ≤ ++ <25%)
* COc1cccc2c1[C@@H]([C@@H]1CCCN1)OCC2 | ++ (5% ≤ ++ <25%)
* Fc1ccc2c(c1)CCCO[C@H]2[C@@H]1CCCN1 | ++ (5% ≤ ++ <25%)
* c1cc2c(c3c1CCO[C@H]3[C@@H]1CCN1)OCO2 | ++ (5% ≤ ++ <25%)
* Cc1cccc2c1[C@H]([C@@H]1CCCN1)OCC2 | ++ (5% ≤ ++ <25%)
* Fc1ccc2c(c1)CCO[C@H]2[C@@H]1CCN1 | ++ (5% ≤ ++ <25%)
* COc1cccc2c1[C@@H]([C@H]1CCCN1)OCC2 | ++ (5% ≤ ++ <25%)
* N#Cc1cccc2c1[C@@H]([C@@H]1CCCN1)OCC2 | + (LOQ ≤ + <5%)
* c1ccc2c(c1)CCO[C@H]2[C@@H]1CCCCN1 [Compound I-72, (S)-2-((R)-isochroman-1-yl)piperidine] | + (LOQ ≤ + <5%)
* CC1(C)CN[C@H]([C@H]2OCCc3ccccc32)C1 | ++ (5% ≤ ++ <25%)
* Fc1ccc2c(c1)[C@H]([C@@H]1CCCN1)OCC2 | ++ (5% ≤ ++ <25%)
